target: α1(L264T)β3γ2L GABAA receptors (Homo sapiens, UniProt P14867+P28472, L291T); test: cell-based
Sequence (P14867 28-456 L291T): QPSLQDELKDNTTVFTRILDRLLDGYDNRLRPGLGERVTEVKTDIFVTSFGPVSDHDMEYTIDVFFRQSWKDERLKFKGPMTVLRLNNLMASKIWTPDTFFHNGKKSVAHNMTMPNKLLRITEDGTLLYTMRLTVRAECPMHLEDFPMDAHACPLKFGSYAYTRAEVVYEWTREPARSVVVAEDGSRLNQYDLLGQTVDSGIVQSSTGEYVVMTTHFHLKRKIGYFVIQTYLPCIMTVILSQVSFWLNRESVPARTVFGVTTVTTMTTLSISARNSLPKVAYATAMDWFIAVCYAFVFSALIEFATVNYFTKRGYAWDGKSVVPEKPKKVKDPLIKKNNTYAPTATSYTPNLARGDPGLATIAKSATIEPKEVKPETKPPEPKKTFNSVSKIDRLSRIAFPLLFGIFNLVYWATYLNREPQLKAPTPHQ
Sequence (P28472 26-473): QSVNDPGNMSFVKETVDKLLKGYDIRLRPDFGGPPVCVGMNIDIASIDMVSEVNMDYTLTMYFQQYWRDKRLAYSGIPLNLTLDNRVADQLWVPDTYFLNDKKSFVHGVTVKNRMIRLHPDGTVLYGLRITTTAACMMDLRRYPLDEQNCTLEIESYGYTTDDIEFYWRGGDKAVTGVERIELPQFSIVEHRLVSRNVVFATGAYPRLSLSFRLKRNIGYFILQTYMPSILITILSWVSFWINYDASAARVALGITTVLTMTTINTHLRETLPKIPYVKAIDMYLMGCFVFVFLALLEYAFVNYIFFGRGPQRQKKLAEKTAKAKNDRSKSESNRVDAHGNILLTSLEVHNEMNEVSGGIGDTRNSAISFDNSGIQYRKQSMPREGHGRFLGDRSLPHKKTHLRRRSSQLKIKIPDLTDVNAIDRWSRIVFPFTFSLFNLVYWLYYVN
Sequence (P18507 40-475 partner): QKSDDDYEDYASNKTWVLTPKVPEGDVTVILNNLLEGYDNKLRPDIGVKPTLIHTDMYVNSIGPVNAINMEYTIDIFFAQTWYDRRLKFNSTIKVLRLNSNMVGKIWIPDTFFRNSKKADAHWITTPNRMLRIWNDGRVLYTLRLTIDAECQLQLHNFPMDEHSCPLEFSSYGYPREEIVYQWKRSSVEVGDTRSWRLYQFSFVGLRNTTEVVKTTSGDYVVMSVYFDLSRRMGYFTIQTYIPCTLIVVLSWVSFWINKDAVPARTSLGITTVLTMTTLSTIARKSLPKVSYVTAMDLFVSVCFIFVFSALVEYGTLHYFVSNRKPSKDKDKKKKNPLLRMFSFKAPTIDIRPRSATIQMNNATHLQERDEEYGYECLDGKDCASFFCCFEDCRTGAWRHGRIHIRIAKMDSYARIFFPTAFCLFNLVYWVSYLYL
experimentalReadout: EC50 (µM)
Report only the number, with the unit µM understood.

{"columns": ["compound", "unitTag", "EC50"],
 "data": [
  ["CCOC(=O)c1cncn1Cc1ccccc1 [dihydrogen etomidate]", "µM", 161],
  ["CC(C)c1cccc(C(C)C)c1O [propofol, reference compound]", "µM", 7.58]
]}

Lab note: next compound to report on.
Input CCOC(=O)c1cncn1C1(c2ccccc2)CC1 [cyclopropyl etomidate] . Output EC50: 67.6

###

experiment: Lethality after intravenous bolus injection; assay type: in vivo, Sprague-Dawley rats; details: Sprague-Dawley, rat, in vivo, iv
experimentalReadout: LD50 (mg/kg)
Report only the number, with the unit mg/kg understood.

{"columns": ["compound", "LD50, mg/kg"],
 "data": [
  ["CCOC(=O)c1cncn1C1(c2ccccc2)CC1 [cyclopropyl etomidate]", 50],
  ["CCOC(=O)c1cncn1Cc1ccccc1 [dihydrogen etomidate]", 40],
  ["CCOC(=O)c1cncn1[C@H](C)c1ccccc1 [R-etomidate, reference compound]", 15]
]}

Lab note: next compound to report on.
Input CCOC(=O)c1cncn1[C@@H](C)c1ccccc1 [S-etomidate, reference compound] . Output LD50: 25
